Tgt: T1, recombinant human LAG-3-his protein (Novoprotein) (human, UniProt P18627 23-450)
T1 construct: Bought; also called huLAG-3; not shown: His tag
T1 sequence (looked up): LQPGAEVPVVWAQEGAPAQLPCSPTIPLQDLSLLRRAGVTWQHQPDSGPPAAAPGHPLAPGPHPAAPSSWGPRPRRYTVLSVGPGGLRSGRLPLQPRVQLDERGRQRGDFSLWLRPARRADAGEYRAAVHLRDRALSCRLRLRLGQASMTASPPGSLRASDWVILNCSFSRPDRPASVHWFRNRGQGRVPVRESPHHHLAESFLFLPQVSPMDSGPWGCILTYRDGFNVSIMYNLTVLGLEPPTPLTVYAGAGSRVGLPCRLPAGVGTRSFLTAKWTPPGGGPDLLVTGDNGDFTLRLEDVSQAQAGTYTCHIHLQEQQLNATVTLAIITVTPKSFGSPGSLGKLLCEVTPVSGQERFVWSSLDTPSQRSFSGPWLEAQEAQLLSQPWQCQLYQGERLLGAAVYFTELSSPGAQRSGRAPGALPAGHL
Assay Method Text: BLI Octet, Ab on AHC sensor, huLAG-3-his; test group 1
Experimental: All 18 humanized antibodies (Table 34) and a chimeric antibody having the parental murine VH and VL domains (mAb747c) were ranked by dissociation rate constant (koff). […] Binding was measured by dipping sensors into a single concentration of recombinant human LAG-3-his protein (Novoprotein). […] The off-rate ratios were calculated by the off-rate of antibody to that of mAb747c of its group and were compared all together. […]
# koff per record follows

Binder: HumAb747-44 (antibody, human IgG1, V domains shown, humanized mAb747; human IgG1/kappa constant domains) VH: EVQLVQSGAEVKKPGATVKLSCKASDFNIKDDYMHWVQQAPGKGLEWIGWIVPENGNTEYASKFQGRVTITADTSTDTAYLELSSLRSEDTAVYYCTVYGDYWGQGTTVTVSS VL: DIQMTQSPSSLSASVGDRVTITCRASQEISGYLSWLQQKPGKAIKSLIYAASTLDSGVPSRFSGSRSGTDFTLTISSLQPEDFATYYCLQYASYPLTFGQGTKLEIK
koff: 0.011 s⁻¹
--
Binder: HumAb747-45 (antibody, human IgG1, V domains shown, humanized mAb747; human IgG1/kappa constant domains) VH: EVQLVQSGAEVKKPGATVKLSCTASDFNIKDDYMHWVQQAPGKGLEWIGWIVPENGNTEYASKFQGRVTITADTSTDTAYLELSSLRSEDTAVYYCTVYGDYWGQGTTVTVSS VL: DIQMTQSPSSLSASVGDRVTITCRASQEISGYLSWLQQKPGKAIKSLIYAASTLDSGVPSRFSGSRSGTDFTLTISSLQPEDFATYYCLQYASYPLTFGQGTKLEIK
koff: 0.0108 s⁻¹
--
Binder: HumAb747-43 (antibody, human IgG1, V domains shown, humanized mAb747; human IgG1/kappa constant domains) VH: EVQLVQSGAEVKKPGATVKISCKVSDFNIKDDYMHWVQQAPGKGLEWIGWIVPENGNTEYASKFQGRVTITADTSTDTAYLELSSLRSEDTAVYYCTVYGDYWGQGTTVTVSS VL: DIQMTQSPSSLSASVGDRVTITCRASQEISGYLSWLQQKPGKAIKSLIYAASTLDSGVPSRFSGSRSGTDFTLTISSLQPEDFATYYCLQYASYPLTFGQGTKLEIK
koff: 0.00925 s⁻¹
